In this section, each of the molecules is paired with its reported Activity.
Test system: Rattus norvegicus
protocol: Androgenic activity in castrated CD(SD)IGS rat assessed as prostate weight at 2.5 mg/kg, po bid for 4 days co-treated with testosterone propionate by Harshberger assay relative to control
Type: organism-based
cond: in vivo, 96 h
Write it as a number; the unit % goes unstated.

As a guide, the following entries are already answered.
INSERT INTO results (structure_smiles_string, target_desc, assay_result) VALUES
  ('C[C@H]1[C@@H](O)C(F)(F)C(=O)N1c1ccc(C#N)c(Cl)c1', 'Rattus norvegicus', 85),
  ('CC[C@H]1[C@@H](O)[C@H](C)C(=O)N1c1ccc(C#N)c(Cl)c1', 'Rattus norvegicus', 149),
  ('CC[C@H]1[C@H](O)CC(=O)N1c1ccc(C#N)c(Cl)c1', 'Rattus norvegicus', 84),
  ('C[C@@H]1N(c2ccc(C#N)c(Cl)c2)C(=O)C[C@]1(C)O', 'Rattus norvegicus', 76),
  ('CC[C@H]1[C@@H](O)CC(=O)N1c1ccc(C#N)c(OC)c1', 'Rattus norvegicus', 90),
  ('CC[C@H]1[C@@H](O)CC(=O)N1c1ccc(C#N)c(C(F)(F)F)c1', 'Rattus norvegicus', 106);

# context switch: different molecule, same Activity
# Activity (molecule: `CC[C@H]1[C@@H](O)CC(=O)N1c1ccc(C#N)c(Cl)c1` ) is 94

---

protocol: AUC (0 to 24 hrs) in Beagle dog at 1 mg/kg, po by LC-MS/MS analysis
Assay type: ADME, organism-based, Canis lupus familiaris
Parameters: time < 24 hr, dose 1 mg/kg, route oral
cond: in vivo
parameter.measured: AUC(0-t) at 24 h (ng·h/mL)
Write it as a number; the unit ng·h/mL goes unstated.

# AUC(0-t) at 24 h (compound: `CC[C@H]1[C@@H](O)CC(=O)N1c1ccc(C#N)c(C(F)(F)F)c1` ) is 1160

---

protocol: Volume of distribution at steady state in Crl:CD(SD) rat at 0.1 mg/kg, iv by LC-MS/MS analysis
Type: ADME, organism-based
cond: in vivo, read-out: Vdss
parameter.measured: Vd
Report the figure along with its unit, number first.

# Vd (compound: `CC[C@H]1[C@@H](O)CC(=O)N1c1ccc(C#N)c(C(F)(F)F)c1` ) is 2.17 L/kg

---

protocol: MRT in Beagle dog at 1 mg/kg, po by LC-MS/MS analysis
Format: ADME, organism-based, Canis lupus familiaris
cond: in vivo
parameter.measured: MRT (h)
Write it as a number; the unit h goes unstated.

# MRT (compound: `CC[C@H]1[C@@H](O)CC(=O)N1c1ccc(C#N)c(C(F)(F)F)c1` ) is 4.34

---

protocol: Cmax in Beagle dog at 1 mg/kg, po by LC-MS/MS analysis
Type: ADME, organism-based, Canis lupus familiaris
Design: dose 1 mg/kg, route oral
cond: in vivo
parameter.measured: Cmax (ng/mL)
Write it as a number; the unit ng/mL goes unstated.

# Cmax (compound: `CC[C@H]1[C@@H](O)CC(=O)N1c1ccc(C#N)c(C(F)(F)F)c1` ) is 265

---

protocol: Tmax in Beagle dog at 1 mg/kg, po by LC-MS/MS analysis
Format: ADME, organism-based, Canis lupus familiaris
cond: in vivo
parameter.measured: Tmax (min)
Write it as a number; the unit min goes unstated.

# Tmax (compound: `CC[C@H]1[C@@H](O)CC(=O)N1c1ccc(C#N)c(C(F)(F)F)c1` ) is 45
